Target: T1, human ICOS, full-length, expressed on transfected Expi293 cells (human, UniProt Q9Y6W8 21-199)
T1 construct: whole, on cells
T1 sequence (looked up): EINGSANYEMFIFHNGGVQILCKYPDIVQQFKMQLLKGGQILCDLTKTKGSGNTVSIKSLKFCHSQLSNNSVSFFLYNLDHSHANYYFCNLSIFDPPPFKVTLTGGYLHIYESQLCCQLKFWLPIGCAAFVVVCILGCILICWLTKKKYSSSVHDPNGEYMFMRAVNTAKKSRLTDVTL
Assay: flow cytometry, 100 nM, Expi293 cells with human ICOS
measurement type: MFI (MFI)
// units = MFI; emit number, no label

Exam item: Could you tell me which MFI is on file for variant ICOSL IgV-Fc fusion N52M/N57H/Q100S (Fc fusion) DTQEKEVRAMVGSDVELSCACPEGSRFDLNDVYVYWQTSESKTVVTYHIPQMSSLEHVDSRYRNRALMSPAGMLRGDFSLRLFNVTPQDEQKFHCLVLSSSLGFQEVLSVEVTLHVAANFSVGSGGGGSEPKSSDKTHTCPPCPAPEAEGAPSVFLFPPKPKDTLMISRTPEVTCVVVDVSHEDPEVKFNWYVDGVEVHNAKTKPREEQYNSTYRVVSVLTVLHQDWLNGKEYKCKVSNKALPAPIEKTISKAKGQPREPQVYTLPPSREEMTKNQVSLTCLVKGFYPSDIAVEWESNGQPENNYKTTPPVLDSDGSFFLYSKLTVDKSRWQQGNVFSCSVMHEALHNHYTQKSLSLSPG ?
Marked response: 266000

Attribution: patent US20230235012A1
